Hello, the source for this data is paper PMC5597618, in case you need it.

- systemUnderTest: cathepsin X (Homo sapiens, UniProt Q9UBR2)
- Sequence (Q9UBR2 62-303): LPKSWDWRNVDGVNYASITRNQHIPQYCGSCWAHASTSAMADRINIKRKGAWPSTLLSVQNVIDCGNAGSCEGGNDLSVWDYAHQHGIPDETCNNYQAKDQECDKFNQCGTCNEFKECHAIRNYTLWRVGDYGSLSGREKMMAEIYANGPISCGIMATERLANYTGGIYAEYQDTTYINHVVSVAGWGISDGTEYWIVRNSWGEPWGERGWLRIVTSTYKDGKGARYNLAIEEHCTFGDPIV
- methodSummary: Determination of relative inhibition of cathepsin X
- Format: biochemical
- Set-up: made in house; host or cells: Pichia pastoris
- settings: screening at 50 μM compound; read-out: relative inhibition of cathepsin X
resultType: inhibition at 50 µM

{"compound": "Nc1nc(SCC(=O)c2ccc3c(c2)OCCO3)n[nH]1", "systemUnderTest": "cathepsin X (Homo sapiens, UniProt Q9UBR2)", "resultType": "inhibition at 50 µM", "testResult": "60 to 75%"}
{"compound": "N#Cc1c(NC(=O)c2cc(OCCN)ccc2Cl)sc2c1CCCC2", "systemUnderTest": "cathepsin X (Homo sapiens, UniProt Q9UBR2)", "resultType": "inhibition at 50 µM", "testResult": "60 to 75%"}
{"compound": "CC(C)n1cnnc1SCC(=O)c1ccc2c(c1)OCCO2", "systemUnderTest": "cathepsin X (Homo sapiens, UniProt Q9UBR2)", "resultType": "inhibition at 50 µM", "testResult": "> 70%"}
{"compound": "O=C(NC1CC2C(=O)NCC(=O)N2C1)c1ccc2cccnc2n1 (centres unmarked)", "systemUnderTest": "cathepsin X (Homo sapiens, UniProt Q9UBR2)", "resultType": "inhibition at 50 µM", "testResult": "60 to 75%"}
{"compound": "O=C(CSc1nc(C2CC2)n[nH]1)c1ccc2c(c1)OCCO2", "systemUnderTest": "cathepsin X (Homo sapiens, UniProt Q9UBR2)", "resultType": "inhibition at 50 µM", "testResult": "> 70%"}

---

Listed here: items and their measured Ki.
- systemUnderTest: UniProtKB Q9UBR2
- methodSummary: Determination of Ki values and inhibition mechanism against cathepsin X (Abz-FEK(Dnp)-OH substrate)
- Format: biochemical
- Set-up: made in house; host or cells: Pichia pastoris
- settings: second group; progress curve analysis with ENZO
resultType: Ki (µM)

{"smilesData": "O=C(CSc1nnc(N2CCCC2)n1C1CC1)c1ccc2c(c1)OCCO2", "systemUnderTest": "UniProtKB Q9UBR2", "resultType": "Ki", "testResult": 5.41}
{"smilesData": "Cn1cnc(SCC(=O)c2ccc3c(c2)OCCO3)n1", "systemUnderTest": "UniProtKB Q9UBR2", "resultType": "Ki", "testResult": 5.88}
{"smilesData": "O=C(CSc1nc(C2CC2)n[nH]1)c1ccc2c(c1)OCCO2", "systemUnderTest": "UniProtKB Q9UBR2", "resultType": "Ki", "testResult": 7.35}
{"smilesData": "Cc1ccccc1-n1cnnc1SCC(=O)c1ccc2c(c1)OCCO2", "systemUnderTest": "UniProtKB Q9UBR2", "resultType": "Ki", "testResult": 8.78}
{"smilesData": "CC(C)n1cnnc1SCC(=O)c1ccc2c(c1)OCCO2", "systemUnderTest": "UniProtKB Q9UBR2", "resultType": "Ki", "testResult": 2.45}

---

- systemUnderTest: cathepsin X (Homo sapiens)
- methodSummary: Determination of Ki values and inhibition mechanism against cathepsin X (Abz-FEK(Dnp)-OH substrate)
- Type: biochemical
- Parameters: made in house; host or cells: Pichia pastoris
- settings: first group; SigmaPlot non-linear regression at 3 different substrate concentrations
pKi: −log10 of the molar value.
resultType: pKi

{"molecule": "Nc1nc(SCC(=O)c2ccc3c(c2)OCCO3)n[nH]1", "resultType": "pKi", "testResult": 4.53}
{"molecule": "N#Cc1c(NC(=O)c2cc(OCCN)ccc2Cl)sc2c1CCCC2", "resultType": "pKi", "testResult": 3.59}
{"molecule": "O=C(NC1CC2C(=O)NCC(=O)N2C1)c1ccc2cccnc2n1 (centres unmarked)", "resultType": "pKi", "testResult": 3.87}
{"molecule": "Cc1[nH]c2ccccc2c1C(=O)CSc1n[nH]c(N)n1", "resultType": "pKi", "testResult": 4.42}
{"molecule": "N#Cc1c(NC(=O)c2cc(OCCCN)ccc2Cl)sc2c1CCCC2", "resultType": "pKi", "testResult": 3.64}
